- Test system: Plutella xylostella
- Protocol Summary: Insecticidal activity against Plutella xylostella (diamondback moth) assessed as insect mortality at 12.5 ppm
- Assay type: functional
Attribute Measured: mortality at 12.5 ppm (%)
One number for each entry, in %.

>  <Chem Smiles>
CCc1nn(C)c(C(=O)NCc2ccc(COc3ccc(C)cc3)cc2)c1Cl

>  <Assay Value>
0

$$$$
>  <Chem Smiles>
CCc1nn(C)c(C(=O)NCc2ccc(Oc3ccc(C)cc3)cc2)c1Cl

>  <Assay Value>
100

$$$$
>  <Chem Smiles>
CCc1nn(C)c(C(=O)NCc2ccc(Sc3ccc(C)cc3)cc2)c1Cl

>  <Assay Value>
30

$$$$

Dear reader, for each entry below, please note its mortality at 12.5 ppm.
1. CCc1nn(C)c(C(=O)NCc2ccc(C(=O)c3ccc(C)cc3)cc2)c1Cl
2. CCc1nn(C)c(C(=O)NCc2ccc(Cc3ccc(C)cc3)cc2)c1Cl

100
0

Data origin: ChEMBL document CHEMBL3044832
